System: HCT-116
Assay: Antiproliferative activity against human HCT116 cells after 48 hrs by MTS assay
Assay type: functional, cell-based
Settings: HCT-116, 48 h
measurement type: IC50 (nM)

See these solved cases before continuing.
- molecule: "CC1=C(CSC(=S)N2CCCCC2)C(=O)c2ccccc2C1=O"
  units symbol: "nM"
  IC50: 180
- molecule: "O=C1C=C(CSC(=S)N2CCOCC2)C(=O)c2ccccc21"
  units symbol: "nM"
  IC50: 3680
- molecule: "CC1=C(CSC(=S)N2CCN(C)CC2)C(=O)c2ccccc2C1=O"
  units symbol: "nM"
  IC50: 2840

[1] CCN(CC)C(=S)SCC1=CC(=O)c2ccccc2C1=O
[2] CCN(CC)CCNC(=S)SCC1=C(C)C(=O)c2ccccc2C1=O
[3] CCCN(CCC)C(=S)SCC1=C(C)C(=O)c2ccccc2C1=O
[4] CCN(CC)C(=S)SCC1=C(C)C(=O)c2ccccc2C1=O
Please list the entries, largest IC50 first. Order the labels as requested and list them. 3, 2, 1, 4
(3: 6000 nM, 2: 3370 nM, 1: 1820 nM, 4: 410 nM)
